# assay-target: PD-1/PD-L1 (Homo sapiens, UniProt Q9NZQ7)
# Sequence (Q9NZQ7 19-238 limits assumed): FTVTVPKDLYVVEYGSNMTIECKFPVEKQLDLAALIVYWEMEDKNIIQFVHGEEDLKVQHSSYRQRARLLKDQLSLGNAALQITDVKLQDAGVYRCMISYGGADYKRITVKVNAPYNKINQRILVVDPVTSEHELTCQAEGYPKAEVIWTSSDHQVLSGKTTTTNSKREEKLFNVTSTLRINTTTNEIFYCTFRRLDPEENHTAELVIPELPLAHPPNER
# assay-explanation: TR-FRET PD-1/PD-L1 binding inhibition at the molecular level (free proteins)
# recorded-conditions: Tag1-PD-L1 and Tag2-PD-1 proteins, twelve concentrations from 200 nM, 2 hours at room temperature, read-out: FRET assay (IC50)
Quick reference for IC50 among some compounds

{"compound": "Cc1c(NC(=O)c2cc3n(n2)CCCC3O)cccc1-c1cccc(NC(=O)c2cc3n(n2)CCCC3NCCO)c1C (stereo not drawn)", "IC50": "< 0.01 µM"}
{"compound": "COc1cc(-c2cccc(-c3cccc(NC(=O)c4cc5n(n4)CCCC5O)c3C)c2C)cc(F)c1CN1CC[C@@H](O)C1 (stereo partly drawn)", "IC50": "< 0.01 µM"}
{"compound": "O=C(Nc1cccc(-c2cccc(Nc3nccc4cc(CN5CC[C@@H](O)C5)cnc34)c2Cl)c1Cl)c1cc2n(n1)CCCC2O (stereo partly drawn)", "IC50": "0.01 to 0.1 µM"}
{"compound": "Cc1c(NC(=O)c2cc3n(n2)CCC[C@@H]3N2CCC(C(=O)O)CC2)cccc1-c1cccc(Nc2nc(C(F)F)nc3cccnc23)c1C", "IC50": "0.01 to 0.1 µM"}
{"compound": "O=C(Nc1cccc(-c2cccc(NC(=O)c3ncc(CN4CC[C@@H](O)C4)cc3F)c2Cl)c1Cl)c1cc2n(n1)CCCC2N1CC[C@@H](C(=O)O)C1 (stereo partly drawn)", "IC50": "< 0.01 µM"}
{"compound": "Cc1c(NC(=O)c2cc3n(n2)CCC[C@H]3N2CCC(C(=O)O)CC2)cccc1-c1cccc(Nc2nc(C(F)F)nc3cccnc23)c1C", "IC50": "< 0.01 µM"}

====

# assay-target: PD-1/PD-L1 (Homo sapiens, UniProt Q9NZQ7)
# assay-explanation: TR-FRET PD-1/PD-L1 binding inhibition at the molecular level (free proteins)
# recorded-conditions: Tag1-PD-L1 and Tag2-PD-1 proteins, twelve concentrations from 200 nM, 2 hours at room temperature, read-out: FRET assay (IC50)
pIC50: −log10 of the molar value.

{"compound": "O=C(Nc1cccc(-c2cccc(Nc3nc(C(F)F)nc4cc(CN5CC[C@@H](O)C5)cnc34)c2Cl)c1Cl)c1cc2n(n1)CCCC2NCCO (stereo partly drawn)", "pIC50": "7.00 to 8.00"}
{"compound": "Cc1c(NC(=O)c2ccc(CN3CC[C@@H](O)C3)cn2)cccc1-c1cccc(NC(=O)c2cc3n(n2)CCC[C@@H]3N2CCC[C@@H]2CO)c1C", "pIC50": "> 8.00"}
{"compound": "O=C(Nc1cccc(-c2cccc(Nc3nc(C(F)F)nc4cc(CN5CC[C@@H](O)C5)cnc34)c2Cl)c1Cl)c1cc2n(n1)CCCC2N1CCC(O)CC1 (stereo partly drawn)", "pIC50": "7.00 to 8.00"}
{"compound": "CN(C)[C@H]1CCCn2nc(C(=O)Nc3cccc(-c4cccc(NC(=O)c5cc6n(n5)CCC[C@@H]6NCC(=O)O)c4Cl)c3Cl)cc21", "pIC50": "> 8.00"}
{"compound": "Cc1c(NC(=O)c2ccc(CN3CC[C@@H](O)C3)cn2)cccc1-c1cccc(NC(=O)c2cc3n(n2)CCCC3NCC(=O)O)c1C (stereo partly drawn)", "pIC50": "> 8.00"}
{"compound": "CC(=O)NCCNC1CCCn2nc(C(=O)Nc3cccc(-c4cccc(NC(=O)c5ccc(CN6CC[C@@H](O)C6)cn5)c4Cl)c3Cl)cc21 (stereo partly drawn)", "pIC50": "> 8.00"}

====

# assay-target: PD-1/PD-L1 (Homo sapiens, UniProt Q9NZQ7)
# assay-explanation: TR-FRET PD-1/PD-L1 binding inhibition at the molecular level (free proteins)
# recorded-conditions: Tag1-PD-L1 and Tag2-PD-1 proteins, twelve concentrations from 200 nM, 2 hours at room temperature, read-out: FRET assay (IC50)
pIC50: −log10 of the molar value.
Entries and their pIC50 values follow.
property-name: pIC50

{"compound": "O=C(O)CNC1CCCn2nc(C(=O)Nc3cccc(-c4cccc(Nc5nc(C(F)F)nc6cc(CN7CC[C@@H](O)C7)cnc56)c4Cl)c3Cl)cc21 (stereo partly drawn)", "property-name": "pIC50", "readout-value": "> 8.00"}
{"compound": "O=C(O)CNC1CCCn2nc(C(=O)Nc3cccc(-c4cccc(NC(=O)c5ccc(CN6CC[C@@H](O)C6)cn5)c4Cl)c3Cl)cc21 (stereo partly drawn)", "property-name": "pIC50", "readout-value": "> 8.00"}
{"compound": "Cc1c(NC(=O)c2cc3n(n2)CCCC3NCCO)cccc1-c1cccc(NC(=O)c2nc3c(s2)CN(C)CC3)c1C (stereo not drawn)", "property-name": "pIC50", "readout-value": "> 8.00"}
{"compound": "CC(=O)NCCNC1CCCn2nc(C(=O)Nc3cccc(-c4cccc(NC(=O)c5ccc(CNCCO)cn5)c4C)c3C)cc21 (stereo not drawn)", "property-name": "pIC50", "readout-value": "> 8.00"}
{"compound": "CC(C)(N[C@@H]1CCCn2nc(C(=O)Nc3cccc(-c4cccc(Nc5nc(C(F)(F)F)nc6cc(CN7CC[C@@H](O)C7)cnc56)c4Cl)c3Cl)cc21)C(=O)O", "property-name": "pIC50", "readout-value": "7.00 to 8.00"}
{"compound": "CC(C)c1nc(Nc2cccc(-c3cccc(NC(=O)c4cc5n(n4)CCC[C@@H]5N4CCC(C(=O)O)CC4)c3Cl)c2Cl)c2ncccc2n1 (stereo in doubt) [Compound 298]", "property-name": "pIC50", "readout-value": "7.00 to 8.00"}
{"compound": "O=C(Nc1cccc(-c2cccc(Nc3nccc4nccnc34)c2Cl)c1Cl)c1cc2n(n1)CCC[C@@H]2N1CCC(C(=O)O)CC1", "property-name": "pIC50", "readout-value": "7.00 to 8.00"}
{"compound": "COc1cc(C(=O)Nc2cccc(-c3cccc(NC(=O)c4cc5n(n4)CCCC5NCC(=O)O)c3Cl)c2Cl)cc(F)c1CNCCO (stereo not drawn)", "property-name": "pIC50", "readout-value": "> 8.00"}
{"compound": "Cc1c(NC(=O)c2cc3n(n2)CCCC3O)cccc1-c1cccc(Nc2nccc3cc(CN4CC[C@@H](O)C4)cnc23)c1C (stereo partly drawn)", "property-name": "pIC50", "readout-value": "> 8.00"}
{"compound": "Cc1c(Nc2nccc3cc(CN4CC[C@@H](O)C4)cnc23)cccc1-c1cccc(-c2cc3n(n2)CCCC3NCCO)c1C (stereo partly drawn)", "property-name": "pIC50", "readout-value": "> 8.00"}
{"compound": "Cc1c(Nc2nccc3cc(CN4CC[C@@H](O)C4)cnc23)cccc1-c1cccc(NC(=O)c2cc3n(n2)CCCC3NCC(=O)O)c1Cl (stereo partly drawn)", "property-name": "pIC50", "readout-value": "> 8.00"}
{"compound": "Cc1c(NC(=O)c2cc3n(n2)CCC[C@@H]3N2CCC(O)CC2)cccc1-c1cccc(Nc2nc(C(F)(F)F)nc3cccnc23)c1C [Compound 285]", "property-name": "pIC50", "readout-value": "7.00 to 8.00"}

====

# assay-target: PD-L1 expressed on the cell surface (MC38 hPD-L1) (Homo sapiens)
# Construct: expressed in transfected cells; host or cells: MC38 mouse colon cancer cell line expressing human PD-L1
# Sequence (Q9NZQ7 19-290): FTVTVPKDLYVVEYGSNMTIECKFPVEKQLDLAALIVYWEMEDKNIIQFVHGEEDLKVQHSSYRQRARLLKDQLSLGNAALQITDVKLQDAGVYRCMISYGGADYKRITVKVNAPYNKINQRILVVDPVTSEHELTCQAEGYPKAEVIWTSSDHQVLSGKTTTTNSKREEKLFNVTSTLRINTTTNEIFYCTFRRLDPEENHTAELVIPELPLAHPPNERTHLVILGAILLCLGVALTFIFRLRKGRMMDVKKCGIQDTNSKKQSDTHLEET
# assay-explanation: Internalization of cell surface PD-L1, flow cytometry with fluorescent staining
# Assay type: cell-based
# recorded-conditions: MC38 hPD-L1 cells, 1 µM, 4 hours; untreated 90% to 99%
Decide using Cell surface PD-L1 expression level (%) alone. Strictly below 70%: 1. Equal to or above 70%: 0.

{"mol": "Cc1c(NC(=O)c2ccc(CN3CC[C@@H](O)C3)cn2)cccc1-c1cccc(NC(=O)c2cc3n(n2)CCC[C@H]3N2CC[C@@H](O)C2)c1C", "assay-target": "PD-L1 expressed on the cell surface (MC38 hPD-L1) (Homo sapiens)", "assigned-class": 0}
{"mol": "O=C(O)CN[C@@H]1CCCn2nc(C(=O)Nc3cccc(-c4cccc(NC(=O)c5ccc(CN6CC[C@@H](O)C6)cn5)c4Cl)c3Cl)cc21", "assay-target": "PD-L1 expressed on the cell surface (MC38 hPD-L1) (Homo sapiens)", "assigned-class": 1}
{"mol": "O=C(Nc1cccc(-c2cccc(Nc3nccc4cc(CN5CC[C@H](O)C5)cnc34)c2Cl)c1Cl)c1cc2n(n1)CCC[C@@H]2N1CCC(C(=O)O)CC1", "assay-target": "PD-L1 expressed on the cell surface (MC38 hPD-L1) (Homo sapiens)", "assigned-class": 0}
{"mol": "Cc1c(NC(=O)c2ccc(CN3CC[C@@H](O)C3)cn2)cccc1-c1cccc(NC(=O)c2cc3n(n2)CCC[C@@H]3NCCO)c1C", "assay-target": "PD-L1 expressed on the cell surface (MC38 hPD-L1) (Homo sapiens)", "assigned-class": 1}
{"mol": "O=C(Nc1cccc(-c2cccc(Nc3nccc4cc(CN5CC[C@H](O)C5)cnc34)c2Cl)c1Cl)c1cc2n(n1)CCC[C@H]2N1CCC(C(=O)O)CC1", "assay-target": "PD-L1 expressed on the cell surface (MC38 hPD-L1) (Homo sapiens)", "assigned-class": 1}
{"mol": "Cc1c(NC(=O)c2ccc(CN3CC[C@@H](O)C3)cn2)cccc1-c1cccc(NC(=O)c2cc3n(n2)CCC[C@H]3NCCO)c1C", "assay-target": "PD-L1 expressed on the cell surface (MC38 hPD-L1) (Homo sapiens)", "assigned-class": 0}
{"mol": "Cc1c(NC(=O)c2cc3n(n2)CCC[C@@H]3NCC(=O)O)cccc1-c1cccc(Nc2nc(C(F)F)nc3cc(CN4CC[C@@H](O)C4)cnc23)c1C", "assay-target": "PD-L1 expressed on the cell surface (MC38 hPD-L1) (Homo sapiens)", "assigned-class": 1}
{"mol": "Cc1c(NC(=O)c2ccc(CN3CC[C@@H](O)C3)cn2)cccc1-c1cccc(NC(=O)c2cc3n(n2)CCC[C@@H]3N2CC[C@@H](O)C2)c1C", "assay-target": "PD-L1 expressed on the cell surface (MC38 hPD-L1) (Homo sapiens)", "assigned-class": 1}
{"mol": "O=C(O)CN[C@@H]1CCCn2nc(C(=O)Nc3cccc(-c4cccc(NC(=O)c5ccc(CNCCO)cn5)c4Cl)c3Cl)cc21", "assay-target": "PD-L1 expressed on the cell surface (MC38 hPD-L1) (Homo sapiens)", "assigned-class": 1}
{"mol": "O=C(Nc1cccc(-c2cccc(NC(=O)c3cc4n(n3)CCC[C@H]4NCCO)c2Cl)c1Cl)c1ccc(CNCCO)cn1", "assay-target": "PD-L1 expressed on the cell surface (MC38 hPD-L1) (Homo sapiens)", "assigned-class": 0}
{"mol": "O=C(O)CN[C@H]1CCCn2nc(C(=O)Nc3cccc(-c4cccc(Nc5nccc6cc(CN7CC[C@@H](O)C7)cnc56)c4Cl)c3Cl)cc21", "assay-target": "PD-L1 expressed on the cell surface (MC38 hPD-L1) (Homo sapiens)", "assigned-class": 1}
{"mol": "O=C1CC[C@@H](CN[C@@H]2CCCn3nc(C(=O)Nc4cccc(-c5cccc(NC(=O)c6ccc(CNCCO)cn6)c5Cl)c4Cl)cc32)N1", "assay-target": "PD-L1 expressed on the cell surface (MC38 hPD-L1) (Homo sapiens)", "assigned-class": 1}
{"mol": "Cc1c(NC(=O)c2cc3n(n2)CCC[C@H]3N2CC[C@@H](C(=O)O)C2)cccc1-c1cccc(Nc2nc(C(F)F)nc3cc(CN4CC[C@@H](O)C4)cnc23)c1C", "assay-target": "PD-L1 expressed on the cell surface (MC38 hPD-L1) (Homo sapiens)", "assigned-class": 0}
{"mol": "O=C(Nc1cccc(-c2cccc(NC(=O)c3cc4n(n3)CCC[C@@H]4N3CC[C@@H](C(=O)O)C3)c2Cl)c1Cl)c1ccc(CNCCO)cn1", "assay-target": "PD-L1 expressed on the cell surface (MC38 hPD-L1) (Homo sapiens)", "assigned-class": 1}

Where these numbers come from: patent EP4755888A1
